# Test system: 843126-344-R-J1-PDC complex spheroid viability
# experimentSummary: Anticancer human tumor 843126-344-R-J1-PDC patient-derived melanoma cell line growth inhibition [POLQ]
# experimentalContext: second compound 1 µM; first compound 0.1 µM; stronger effect = lower value
quantityMeasured: viability, T/C

# compound, assayResult
data = [
    ("O=C(Nc1ccc(O)c(NS(=O)(=O)c2ccc(F)cc2)c1)c1ccc(-c2ccccc2)cc1 + COC1C(OC(N)=O)C(O)C(Oc2ccc3c(O)c(NC(=O)c4ccc(O)c(CC=C(C)C)c4)c(=O)oc3c2C)OC1(C)C", "85.3%"),
]

Bench note, 843126-344-R-J1-PDC complex spheroid viability: entry CC1COCCN1c1cc(C2(S(C)(=N)=O)CC2)nc(-c2ccnc3[nH]ccc23)n1 (stereo not given) + Cc1cccc(N(C)C(=O)C2C(O)CCN2c2nc(C)cc(C(F)(F)F)c2C#N)c1 , its viability, T/C = 86.7%

Bench note, 843126-344-R-J1-PDC complex spheroid viability: entry CC1COCCN1c1cc(C2(O)CC3CCC(C2)O3)c2cnn(-c3ccn[nH]3)c2n1 (stereo not given) + Nc1ccc(C#CCN(C(=O)Cc2ncc(C(F)(F)F)cc2C(F)(F)F)c2ccc(F)cc2)nn1 , its viability, T/C = 64.7%

Bench note, 843126-344-R-J1-PDC complex spheroid viability: entry CCc1c2c(nc3ccc(O)cc13)-c1cc3c(c(=O)n1C2)COC(=O)[C@]3(O)CC + COC1C(OC(N)=O)C(O)C(Oc2ccc3c(O)c(NC(=O)c4ccc(O)c(CC=C(C)C)c4)c(=O)oc3c2C)OC1(C)C , its viability, T/C = 70.6%

Bench note, 843126-344-R-J1-PDC complex spheroid viability: entry COc1ccc([C@@H](O)c2cc(-c3ncnc4cc(N5CCOCC5)ccc34)c(F)cc2Cl)nn1 + COC1C(OC(N)=O)C(O)C(Oc2ccc3c(O)c(NC(=O)c4ccc(O)c(CC=C(C)C)c4)c(=O)oc3c2C)OC1(C)C , its viability, T/C = 80.1%

Bench note, 843126-344-R-J1-PDC complex spheroid viability: entry COc1cccc(OCCCN)c1-c1cc(Nc2cnc(C#N)cn2)n[nH]1 + Cc1cccc(N(C)C(=O)C2C(O)CCN2c2nc(C)cc(C(F)(F)F)c2C#N)c1 , its viability, T/C = 54.7%

Bench note, 843126-344-R-J1-PDC complex spheroid viability: entry CCCS(=O)(=O)Nc1ccc(F)c(C(=O)c2c[nH]c3ncc(-c4ccc(Cl)cc4)cc23)c1F + Nc1ccc(C#CCN(C(=O)Cc2ncc(C(F)(F)F)cc2C(F)(F)F)c2ccc(F)cc2)nn1 , its viability, T/C = 91.8%

Bench note, 843126-344-R-J1-PDC complex spheroid viability: entry C=CC(=O)N1CCN(c2nc(=O)n(-c3c(C)ccnc3C(C)C)c3nc(-c4c(O)cccc4F)c(F)cc23)C(C)C1 (stereo not given) + COC1C(OC(N)=O)C(O)C(Oc2ccc3c(O)c(NC(=O)c4ccc(O)c(CC=C(C)C)c4)c(=O)oc3c2C)OC1(C)C , its viability, T/C = 95%

Bench note, 843126-344-R-J1-PDC complex spheroid viability: entry COc1cccc(OCCCN)c1-c1cc(Nc2cnc(C#N)cn2)n[nH]1 + COC1C(OC(N)=O)C(O)C(Oc2ccc3c(O)c(NC(=O)c4ccc(O)c(CC=C(C)C)c4)c(=O)oc3c2C)OC1(C)C , its viability, T/C = 64.7%

Bench note, 843126-344-R-J1-PDC complex spheroid viability: entry COc1cccc2c1C(=O)c1c(O)c3c(c(O)c1C2=O)CC(O)(C(=O)CO)CC3OC1CC(N)C(O)C(C)O1 (stereo not given) + Nc1ccc(C#CCN(C(=O)Cc2ncc(C(F)(F)F)cc2C(F)(F)F)c2ccc(F)cc2)nn1 , its viability, T/C = 79%

* * *

# Tested on: 843126-344-R-J1-PDC complex spheroid viability
# experimentSummary: Anticancer human tumor 843126-344-R-J1-PDC cell line growth inhibition [POLQ]
# experimentalContext: curve of first compound; second compound 10 µM
pIC50: −log10 of the molar value.
quantityMeasured: pIC50

Some molecules with known pIC50 results, for comparison:
# molecule, pIC50
data = [
    ("CCc1cc2c(N3CCc4c(cc(Cn5ccnc5)cc4-c4cn(C)nc4C(F)(F)F)C3=O)ccnc2c(OC)n1 + Cc1cccc(N(C)C(=O)C2C(O)CCN2c2nc(C)cc(C(F)(F)F)c2C#N)c1", "< 5.00"),
    ("CCc1cc2c(N3CCc4c(cc(Cn5ccnc5)cc4-c4cn(C)nc4C(F)(F)F)C3=O)ccnc2c(OC)n1 + Nc1ccc(C#CCN(C(=O)Cc2ncc(C(F)(F)F)cc2C(F)(F)F)c2ccc(F)cc2)nn1", "< 5.00"),
]

Bench note, 843126-344-R-J1-PDC complex spheroid viability: entry CNCc1ccc(-c2[nH]c3cc(F)cc4c3c2CCNC4=O)cc1 + COC1C(OC(N)=O)C(O)C(Oc2ccc3c(O)c(NC(=O)c4ccc(O)c(CC=C(C)C)c4)c(=O)oc3c2C)OC1(C)C , its pIC50 = < 5.00

Bench note, 843126-344-R-J1-PDC complex spheroid viability: entry O=C(Nc1ccc(O)c(NS(=O)(=O)c2ccc(F)cc2)c1)c1ccc(-c2ccccc2)cc1 + COC1C(OC(N)=O)C(O)C(Oc2ccc3c(O)c(NC(=O)c4ccc(O)c(CC=C(C)C)c4)c(=O)oc3c2C)OC1(C)C , its pIC50 = < 5.00

Bench note, 843126-344-R-J1-PDC complex spheroid viability: entry C#Cc1c(F)ccc2cc(O)cc(-c3ncc4c(N5CC6CCC(C5)N6)nc(OCC56CCCN5CC(F)C6)nc4c3F)c12 (stereo unspecified) + Nc1ccc(C#CCN(C(=O)Cc2ncc(C(F)(F)F)cc2C(F)(F)F)c2ccc(F)cc2)nn1 , its pIC50 = < 5.00

Bench note, 843126-344-R-J1-PDC complex spheroid viability: entry C=CC(=O)N1CCN(c2nc(=O)n(-c3c(C)ccnc3C(C)C)c3nc(-c4c(O)cccc4F)c(F)cc23)C(C)C1 (stereo unspecified) + Nc1ccc(C#CCN(C(=O)Cc2ncc(C(F)(F)F)cc2C(F)(F)F)c2ccc(F)cc2)nn1 , its pIC50 = < 5.00

Bench note, 843126-344-R-J1-PDC complex spheroid viability: entry CCc1c2c(nc3ccc(O)cc13)-c1cc3c(c(=O)n1C2)COC(=O)[C@]3(O)CC + Nc1ccc(C#CCN(C(=O)Cc2ncc(C(F)(F)F)cc2C(F)(F)F)c2ccc(F)cc2)nn1 , its pIC50 = < 6.00

Bench note, 843126-344-R-J1-PDC complex spheroid viability: entry CCc1cc2c(N3CCc4c(cc(Cn5ccnc5)cc4-c4cn(C)nc4C(F)(F)F)C3=O)cc(C)nc2c(OC)n1 + Cc1cccc(N(C)C(=O)C2C(O)CCN2c2nc(C)cc(C(F)(F)F)c2C#N)c1 , its pIC50 = < 5.00

Bench note, 843126-344-R-J1-PDC complex spheroid viability: entry CCc1c2c(nc3ccc(O)cc13)-c1cc3c(c(=O)n1C2)COC(=O)[C@]3(O)CC + Cc1cccc(N(C)C(=O)C2C(O)CCN2c2nc(C)cc(C(F)(F)F)c2C#N)c1 , its pIC50 = < 6.00

Bench note, 843126-344-R-J1-PDC complex spheroid viability: entry CNCc1ccc(-c2[nH]c3cc(F)cc4c3c2CCNC4=O)cc1 + Cc1cccc(N(C)C(=O)C2C(O)CCN2c2nc(C)cc(C(F)(F)F)c2C#N)c1 , its pIC50 = < 5.00

Bench note, 843126-344-R-J1-PDC complex spheroid viability: entry O=C(c1cc(Cc2n[nH]c(=O)c3ccccc23)ccc1F)N1CCN(C(=O)C2CC2)CC1 + Cc1cccc(N(C)C(=O)C2C(O)CCN2c2nc(C)cc(C(F)(F)F)c2C#N)c1 , its pIC50 = < 5.00

* * *

# Test system: 843126-344-R-J1-PDC complex spheroid viability
# experimentSummary: Anticancer human tumor 843126-344-R-J1-PDC cell line growth inhibition [POLQ]
# experimentalContext: curve of first compound; second compound 10 µM
pIC50: −log10 of the molar value.
quantityMeasured: pIC50

# compound, assayResult
records = [
    ("COc1cccc(OCCCN)c1-c1cc(Nc2cnc(C#N)cn2)n[nH]1 + Nc1ccc(C#CCN(C(=O)Cc2ncc(C(F)(F)F)cc2C(F)(F)F)c2ccc(F)cc2)nn1", 7.27),
]

Memo: C=CC(=O)N1CCN(c2nc(=O)n(-c3c(C)ccnc3C(C)C)c3nc(-c4c(O)cccc4F)c(F)cc23)C(C)C1 (stereo not given) + COC1C(OC(N)=O)C(O)C(Oc2ccc3c(O)c(NC(=O)c4ccc(O)c(CC=C(C)C)c4)c(=O)oc3c2C)OC1(C)C , reported pIC50: < 5.00

Memo: COc1cc2cc(C(=O)CCC(=O)O)sc2cc1OC + Cc1cccc(N(C)C(=O)C2C(O)CCN2c2nc(C)cc(C(F)(F)F)c2C#N)c1 , reported pIC50: < 5.00

Memo: CC1COCCN1c1cc(C2(S(C)(=N)=O)CC2)nc(-c2ccnc3[nH]ccc23)n1 (stereo not given) + Nc1ccc(C#CCN(C(=O)Cc2ncc(C(F)(F)F)cc2C(F)(F)F)c2ccc(F)cc2)nn1 , reported pIC50: < 5.00

Memo: Cn1ncnc1[C@H]1c2n[nH]c(=O)c3cc(F)cc(c23)N[C@@H]1c1ccc(F)cc1 + COC1C(OC(N)=O)C(O)C(Oc2ccc3c(O)c(NC(=O)c4ccc(O)c(CC=C(C)C)c4)c(=O)oc3c2C)OC1(C)C , reported pIC50: < 7.00
